Ref: ChEMBL document CHEMBL4613253

Test: Oral bioavailability in rat
Type: ADME, organism-based
Conditions: in vivo
readoutLabel: bioavailability (%)
The reply should be a number in %, with the unit left off.

Annotate the compound Cc1cc(-c2ccc(N3CCC(c4nc(C(C)C)no4)CC3)nc2)c(C#N)cc1C#N with its measured bioavailability. 70

----------
Test: AUC(0 to infinity) in human carrying CYP3A5*3/*3 allele at 300 mg, po measured up to 32 hrs
Type: ADME, organism-based
Parameters: dose 300 mg, route oral, time infinity
Conditions: in vivo
readoutLabel: AUC(0-inf)

Please report AUC(0-inf) for the following compound: Cc1nnc(C(C)C)n1[C@@H]1C[C@H]2CC[C@@H](C1)N2CC[C@H](NC(=O)C1CCC(F)(F)CC1)c1ccccc1 [MARAVIROC] 2100 ng·h/mL
